# Inh. (%) of Wee1 kinase enzyme activity annotations
- tgt: Wee1 (h) (Homo sapiens)
- assay name: Wee1 kinase (h) detection method, [γ-33P]-ATP filter assay
- Format: biochemical
- condition description: C 1 μm compound
Write the answer as a number in %, unit excluded.

Look over these answered cases.
# smiles data, unit spec, Inh. (%) of Wee1 kinase enzyme activity
rows = [
    ("CN1CCN(c2ccc(Nc3ncc4c(n3)N3CCN=C3N(C3CCCC3)C4=O)cc2)CC1", "%", 8),
    ("O=C1c2cnc(Nc3ccc(-n4ccnc4)cc3)nc2N2CCN=C2N1c1c(F)cccc1Cl", "%", 7),
    ("O=C1c2cnc(Nc3ccc(N4CCNCC4)c(Cl)c3)nc2N2CCN=C2N1c1c(Cl)cccc1Cl", "%", 96),
    ("Cc1cc(Nc2ncc3c(n2)N2CCN=C2N(c2c(Cl)cccc2Cl)C3=O)cc2c1CCN(C)C2", "%", 100),
    ("Cc1cccc(F)c1N1C(=O)c2cnc(Nc3ccc(N4CCN(C)CC4)c(Cl)c3)nc2N2CCN=C21", "%", 89),
    ("CN(C)CCNc1ccc(Nc2ncc3c(n2)N2CCN=C2N(c2c(F)cccc2Cl)C3=O)cc1", "%", 96),
    ("C[C@@H]1CN(c2ccc(Nc3ncc4c(n3)N3CCN=C3N(c3c(Cl)cccc3Cl)C4=O)c(F)c2)C[C@H](C)N1C", "%", 0),
    ("Cc1cc(N2CCN(C)CC2)ccc1Nc1ncc2c(n1)N1CCN=C1N(c1c(F)cccc1Cl)C2=O", "%", 19),
    ("CN1CCN(c2c(Cl)cc(Nc3ncc4c(n3)N3CCN=C3N(c3c(Cl)cccc3Cl)C4=O)cc2Cl)CC1", "%", 93),
    ("Cc1cc(Nc2ncc3c(n2)N2CCN=C2N(c2c(C)cccc2F)C3=O)cc(C)c1N1CCN(C)CC1", "%", 93),
]

Reported Inh. (%) of Wee1 kinase enzyme activity (Wee1 (h) (Homo sapiens)) for entry CN1CCN(c2c(Cl)cc(Nc3ncc4c(n3)N3CCN=C3N(c3c(Cl)cccc3Cl)C4=O)cc2Br)CC1 is 94

Reported Inh. (%) of Wee1 kinase enzyme activity (Wee1 (h) (Homo sapiens)) for entry C=CCN1C(=O)c2cnc(Nc3ccc(N4CCN(C)CC4)cc3)nc2N2CCN=C12 is 8

Reported Inh. (%) of Wee1 kinase enzyme activity (Wee1 (h) (Homo sapiens)) for entry CN1Cc2cc(Nc3ncc4c(n3)N3CCN=C3N(c3c(Cl)cccc3Cl)C4=O)ccc2C(C)(C)C1 is 100

Reported Inh. (%) of Wee1 kinase enzyme activity (Wee1 (h) (Homo sapiens)) for entry CC(C)N1[C@H](C)CN(c2ccc(Nc3ncc4c(n3)N3CCN=C3N(c3c(F)cccc3Cl)C4=O)cc2)C[C@@H]1C is 100

Reported Inh. (%) of Wee1 kinase enzyme activity (Wee1 (h) (Homo sapiens)) for entry CN1Cc2cc(Nc3ncc4c(n3)N3CCN=C3N(c3c(Cl)cccc3Cl)C4=O)ccc2C2(CC2)C1 is 92

----------
# pIC50 annotations
- Test system: NCI-H1299 cells
- assay name: MTT based cell viability assay on NCI-H1299 cells
- condition description: Homo sapiens, NCI-H1299, NCI-H1299 cells, read-out: IC50, growth inhibition of NCI-H1299 cells
// pIC50 is dimensionless: -log10 of concentration (M)

Reported pIC50 ( CN1CCN(c2c(Cl)cc(Nc3ncc4c(n3)N3CCN=C3N(c3c(F)cccc3Cl)C4=O)cc2Cl)CC1 [Example 122] ) = 6.48

Reported pIC50 ( Cc1cc(Nc2ncc3c(n2)N2CCN=C2N(c2c(Cl)cccc2Cl)C3=O)cc2c1C(C)(C)CN(C)C2 [Example 133] ) = 7.34

----------
- Tested on: NCI-H1299 cells
- assay name: MTT based cell viability assay on NCI-H1299 cells
- condition description: Homo sapiens, NCI-H1299, NCI-H1299 cells, read-out: IC50, growth inhibition of NCI-H1299 cells
Mark TRUE only when IC50 stays strictly below 200 nM. Values equal to the cut-off are FALSE.

# compound, assigned label
data = [
    ("COc1cc(Nc2ncc3c(n2)N2CCN=C2N(c2c(F)cccc2Cl)C3=O)cc(C)c1N1CCN(C)CC1 [Example 129]", "TRUE"),
    ("COc1cc(Nc2ncc3c(n2)N2CCN=C2N(c2c(Cl)cccc2Cl)C3=O)cc(F)c1N1CCN(C)CC1 [Example 149]", "TRUE"),
    ("CN1CCN(c2c(Cl)cc(Nc3ncc4c(n3)N3CCN=C3N(c3c(Cl)cccc3Br)C4=O)cc2Cl)CC1 [Example 164]", "TRUE"),
    ("Cc1cc(Nc2ncc3c(n2)N2CCN=C2N(c2c(F)cccc2Cl)C3=O)ccc1N1CCN(C(C)C)CC1 [Example 52]", "TRUE"),
    ("Cc1cc(Nc2ncc3c(n2)N2CCN=C2N(c2c(F)cccc2F)C3=O)cc(C)c1N1CCN(C)CC1 [Example 101]", "FALSE"),
    ("Cc1cc(Nc2ncc3c(n2)N2CCN=C2N(c2c(F)cccc2Cl)C3=O)cc(F)c1N1CCN(C)CC1 [Example 123]", "FALSE"),
]

Does C[C@@H]1CN(c2ccc(Nc3ncc4c(n3)N3CCN=C3N(c3c(F)cccc3Cl)C4=O)cc2F)C[C@H](C)N1C [Example 45] have IC50 strictly under 200 nM?
FALSE

Does Cc1cc(Nc2ncc3c(n2)N2CCN=C2N(c2c(C)cccc2Cl)C3=O)cc(Cl)c1N1CCN(C)CC1 [Example 173] have IC50 strictly under 200 nM?
FALSE

Does CN1CCN(c2ccc(Nc3ncc4c(n3)N3CCN=C3N(c3c(Cl)cccc3Cl)C4=O)cc2C(F)(F)F)CC1 [Example 73] have IC50 strictly under 200 nM?
FALSE

----------
# Inh. (%) of Wee1 kinase enzyme activity annotations
- tgt: Wee1 (h) (Homo sapiens, UniProt P30291)
- Sequence (P30291 whole entry): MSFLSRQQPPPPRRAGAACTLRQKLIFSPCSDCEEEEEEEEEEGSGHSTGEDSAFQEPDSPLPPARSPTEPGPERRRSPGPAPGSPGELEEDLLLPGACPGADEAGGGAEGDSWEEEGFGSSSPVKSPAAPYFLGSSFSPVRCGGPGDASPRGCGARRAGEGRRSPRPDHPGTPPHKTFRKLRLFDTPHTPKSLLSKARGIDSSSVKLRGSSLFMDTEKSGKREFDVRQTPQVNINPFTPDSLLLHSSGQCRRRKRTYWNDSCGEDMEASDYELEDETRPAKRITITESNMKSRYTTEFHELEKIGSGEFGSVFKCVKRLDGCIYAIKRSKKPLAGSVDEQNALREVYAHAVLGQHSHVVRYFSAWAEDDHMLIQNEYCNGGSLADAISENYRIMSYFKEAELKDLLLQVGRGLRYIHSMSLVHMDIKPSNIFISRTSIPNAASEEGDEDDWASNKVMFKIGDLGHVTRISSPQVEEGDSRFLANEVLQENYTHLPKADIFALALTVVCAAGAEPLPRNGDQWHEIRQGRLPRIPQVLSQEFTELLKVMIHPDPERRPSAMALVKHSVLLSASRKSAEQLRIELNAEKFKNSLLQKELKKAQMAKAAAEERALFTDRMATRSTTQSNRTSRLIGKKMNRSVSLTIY
- assay name: Wee1 kinase (h) detection method, [γ-33P]-ATP filter assay
- Assay type: biochemical
- condition description: C 1 μm compound
Write the answer as a number in %, unit excluded.

Look over these answered cases.
# molecule, tgt, unit spec, Inh. (%) of Wee1 kinase enzyme activity
rows = [
    ("CN1CCN(c2ccc(Nc3ncc4c(n3)N3CCN=C3N(c3cccc(F)c3Cl)C4=O)cc2)CC1 [Example 89]", "Wee1 (h) (Homo sapiens, UniProt P30291)", "%", 89),
    ("Cc1cc(Nc2ncc3c(n2)N2CCN=C2N(c2c(Cl)cccc2Cl)C3=O)cc(Br)c1N1CCN(C)CC1 [Example 156]", "Wee1 (h) (Homo sapiens, UniProt P30291)", "%", 96),
    ("CC(C)N1CCN(c2ccc(Nc3ncc4c(n3)N3CCN=C3N(c3c(Cl)cccc3Cl)C4=O)cc2)CC1 [Example 63]", "Wee1 (h) (Homo sapiens, UniProt P30291)", "%", 99),
]

Reported Inh. (%) of Wee1 kinase enzyme activity (Wee1 (h) (Homo sapiens, UniProt P30291)) for entry CN1CCN(c2ccc(Nc3ncc4c(n3)N3CCN=C3N(C3CC3)C4=O)cc2)CC1 [Example 20] is 9

Reported Inh. (%) of Wee1 kinase enzyme activity (Wee1 (h) (Homo sapiens, UniProt P30291)) for entry CN1CCN(c2ccc(Nc3ncc4c(n3)N3CCN=C3N(c3c(F)cccc3Cl)C4=O)cc2[N+](=O)[O-])CC1 [Example 55] is 12

Reported Inh. (%) of Wee1 kinase enzyme activity (Wee1 (h) (Homo sapiens, UniProt P30291)) for entry Cc1cc(Nc2ncc3c(n2)N2CCN=C2N(c2c(F)cccc2F)C3=O)cc(C)c1N1CCN(C)CC1 [Example 101] is 95

Reported Inh. (%) of Wee1 kinase enzyme activity (Wee1 (h) (Homo sapiens, UniProt P30291)) for entry CN(C)CCCNc1ccc(Nc2ncc3c(n2)N2CCN=C2N(c2c(F)cccc2Cl)C3=O)cc1 [Example 110] is 96

----------
- tgt: Wee1 (h) (Homo sapiens, UniProt P30291)
- assay name: Wee1 kinase (h) detection method, [γ-33P]-ATP filter assay
- Assay type: biochemical
- condition description: C 1 μm compound
I would appreciate it if you labelled entries condition met when Inh. (%) of Wee1 kinase enzyme activity is 30% or higher, otherwise condition not met.

Past entries and their recorded results:
# molecule, tgt, assigned label
data = [
    ("CN1CCN(c2ccc(Nc3ncc4c(n3)N3CCN=C3N(c3c(F)cccc3Cl)C4=O)c(Cl)c2)CC1 [Example 38]", "Wee1 (h) (Homo sapiens, UniProt P30291)", "condition met"),
    ("CN1CCN(c2ccc(Nc3ncc4c(n3)N3CCN=C3N(c3c(F)cccc3Cl)C4=O)cc2F)CC1 [Example 44]", "Wee1 (h) (Homo sapiens, UniProt P30291)", "condition met"),
    ("CN1CCN(c2ccc(Nc3ncc4c(n3)N3CCN=C3N(c3ncccn3)C4=O)cc2)CC1 [Example 92]", "Wee1 (h) (Homo sapiens, UniProt P30291)", "condition not met"),
    ("Cc1cc(Nc2ncc3c(n2)N2CCN=C2N(c2c(F)cccc2C(F)(F)F)C3=O)ccc1N1CCN(C)CC1 [Example 61]", "Wee1 (h) (Homo sapiens, UniProt P30291)", "condition met"),
    ("Cc1cc(Nc2ncc3c(n2)N2CCN=C2N(c2c(Cl)cccc2Cl)C3=O)cc(F)c1N1CCN(C)CC1 [Example 148]", "Wee1 (h) (Homo sapiens, UniProt P30291)", "condition met"),
    ("CN1CCN(c2ccc(Nc3ncc4c(n3)N3CCN=C3N(c3cc(Cl)ccc3Cl)C4=O)cc2)CC1 [Example 90]", "Wee1 (h) (Homo sapiens, UniProt P30291)", "condition not met"),
]

Kindly consider the entry below.
Check if Inh. (%) of Wee1 kinase enzyme activity >= 30% (inclusive). Item: CN(C)C1CCN(c2ccc(Nc3ncc4c(n3)N3CCN=C3N(c3c(Cl)cccc3Cl)C4=O)cc2Cl)CC1 [Example 139]
condition met

Entry source: patent US11345711B2
